These data points were gathered from patent US8846928B2.

What IC50 was measured for each of the following?
TESTED_TARGET: full length active recombinant SYK enzyme (Homo sapiens)
Construct: full length active recombinant SYK enzyme (Millipore, Calif.)
MEASUREMENT_DESCRIPTION: Inhibition of Syk tyrosine phosphorylation activity (LANCE TR-FRET kinase assay)

Below, 5 compounds whose answers are already recorded.
Cc1cccc(Nc2cc(N[C@@H]3CCCC[C@@H]3N)ncc2C(N)=O)c1 (relative stereo)
> 1000 nM
NC(=O)c1cc(F)c(N[C@@H]2CCOC[C@@H]2N)nc1Nc1ccc2ncsc2c1
1 to 10 nM
NC(=O)c1ccc(N[C@@H]2CCNC2)nc1Nc1ccc2ncccc2c1
> 1000 nM
Cc1cc(Nc2cc(N[C@H](CC(C)C)C(N)=O)ccc2C(N)=O)on1
100 to 1000 nM
CC[C@@H](Nc1nc(Nc2cccc3ncccc23)c(C(N)=O)cc1F)C(N)=O
10 to 100 nM

Give IC50 for each of the items listed below.
1. NC(=O)c1cc(F)c(N[C@@H]2CCCC(F)(F)[C@@H]2N)nc1Nc1csc2ncccc12
2. NC(=O)c1ccc(N[C@@H]2CCCC[C@@H]2N)nc1Nc1cncc(-c2ncccn2)c1

1: 10 to 100 nM; 2: 10 to 100 nM

Which IC50 value is on record for "Cn1cc(Nc2nc(N[C@@H]3CCCC[C@@H]3N)c(F)cc2C(N)=O)cn1" ? 10 to 100 nM
